We begin with a simple list: items and their reported log10(Ki).
# measured.target: norepinephrine transporter site (Rattus norvegicus, UniProt Q63380)
# Construct: tissue NovaScreen (performed the assay); host or cells: rat forebrain membranes
# Sequence (Q63380 1-617): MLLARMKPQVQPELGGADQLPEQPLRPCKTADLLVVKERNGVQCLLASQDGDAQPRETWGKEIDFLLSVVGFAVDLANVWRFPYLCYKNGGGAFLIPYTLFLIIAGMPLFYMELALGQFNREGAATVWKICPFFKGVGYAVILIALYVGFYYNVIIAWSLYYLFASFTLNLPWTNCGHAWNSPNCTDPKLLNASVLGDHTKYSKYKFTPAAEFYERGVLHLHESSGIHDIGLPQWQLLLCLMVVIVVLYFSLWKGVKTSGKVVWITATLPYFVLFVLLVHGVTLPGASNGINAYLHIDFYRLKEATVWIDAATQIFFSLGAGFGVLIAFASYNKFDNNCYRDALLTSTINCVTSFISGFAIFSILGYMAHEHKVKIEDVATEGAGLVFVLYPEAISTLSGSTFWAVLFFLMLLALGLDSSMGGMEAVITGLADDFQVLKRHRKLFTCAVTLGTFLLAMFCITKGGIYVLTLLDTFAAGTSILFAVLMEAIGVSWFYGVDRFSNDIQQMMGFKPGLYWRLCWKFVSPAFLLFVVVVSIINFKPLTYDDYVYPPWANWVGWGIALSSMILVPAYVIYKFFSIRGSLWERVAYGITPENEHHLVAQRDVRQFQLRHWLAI
# method.description: Norepinephrine reuptake inhibition assay ([3H]nisoxetine binding, rat forebrain membranes)
Recorded Ki (log10, nM)

Known log10(Ki) results, listed for orientation:
> print(dat)
                              molecule  observable  reported.value
1  C[C@H](N)CC(c1cccc(F)c1)c1cccc(F)c1   log10(Ki)            2.03
2         NCCC(c1cccc(F)c1)c1cccc(F)c1   log10(Ki)            2.49

**Q:** Any idea what log10(Ki) was measured for Fc1cccc(C(c2cccc(F)c2)C2CCCNC2)c1 (centres unmarked) ?
**A:** 2.09

**Q:** Any idea what log10(Ki) was measured for C[C@H](CN)C(c1cccc(F)c1)c1cccc(F)c1 ?
**A:** 3.48

**Q:** Any idea what log10(Ki) was measured for C[C@@H](CN)C(c1cccc(F)c1)c1cccc(F)c1 ?
**A:** 3.58

###

# measured.target: norepinephrine transporter site (Rattus norvegicus, UniProt Q63380)
# Construct: tissue NovaScreen (performed the assay); host or cells: rat forebrain membranes
# method.description: Norepinephrine reuptake inhibition assay ([3H]nisoxetine binding, rat forebrain membranes)
# protocol.conditions: @ 10.0 μM (bottom number); Table I; read-out: NE Uptake mean % inhibition
observable: inhibition at 10 µM
Provide the measurement as a number trailed by its unit.

> print(dat)
                                   compound  reported.value
1  CNCCC(Oc1cccc(F)c1)c1cccc(F)c1 (centres unmarked)           99.4%
2  N[C@H]1CCCC1C(c1cccc(F)c1)c1cccc(F)c1 (some centres unmarked)           76.2%
3  NCCC1c2ccccc2CCc2ccc(F)cc21 (centres unmarked)           27.5%

**Q:** Any idea what inhibition at 10 µM was measured for CCNCCC(c1cccc(F)c1)c1cccc(F)c1 ?
**A:** 50.6%

**Q:** Any idea what inhibition at 10 µM was measured for COc1ccccc1OC(CCN)c1cccc(F)c1 (centres unmarked) ?
**A:** 94.9%

**Q:** Any idea what inhibition at 10 µM was measured for CNC[C@H](C)C(c1cccc(F)c1)c1cccc(F)c1 ?
**A:** 36.5%

**Q:** Any idea what inhibition at 10 µM was measured for Cc1ccccc1OC(CCN)c1cccc(F)c1 (centres unmarked) ?
**A:** 32%

**Q:** Any idea what inhibition at 10 µM was measured for Cc1ccc(F)cc1C(CCN)c1cc(F)ccc1C ?
**A:** 66.6%

###

# measured.target: NMDA receptor
# Construct: rat cortex membranes
# method.description: [3H]MK-801 binding assay (rat cortex synaptic plasma membranes)
# protocol.conditions: read-out: [3H]MK-801 data IC50, Table I
Lab note: cut-off is 700 nM. Strictly less in IC50 is fulfilled. Exactly 700 nM or more is not fulfilled.

> print(dat)
                                   compound  class.label
1  CNCCC(Oc1cccc(F)c1)c1cccc(F)c1 (centres unmarked)    fulfilled
2  N[C@H]1CCCC1C(c1cccc(F)c1)c1cccc(F)c1 (some centres unmarked)    fulfilled
3  NCCC(Oc1cccc(F)c1)c1cccc(Cl)c1 (centres unmarked)    fulfilled

Alright, here's another compound for you.
**Q:** Please state whether IC50 is below 700 nM for COc1ccccc1OC(CCN)c1cccc(F)c1 (centres unmarked)
**A:** fulfilled

###

# measured.target: dopamine transporter site (Cavia porcellus, UniProt H0WCX4)
# Construct: tissue NovaScreen (performed the assay); host or cells: guinea pig striatal membranes
# Sequence (H0WCX4 1-619): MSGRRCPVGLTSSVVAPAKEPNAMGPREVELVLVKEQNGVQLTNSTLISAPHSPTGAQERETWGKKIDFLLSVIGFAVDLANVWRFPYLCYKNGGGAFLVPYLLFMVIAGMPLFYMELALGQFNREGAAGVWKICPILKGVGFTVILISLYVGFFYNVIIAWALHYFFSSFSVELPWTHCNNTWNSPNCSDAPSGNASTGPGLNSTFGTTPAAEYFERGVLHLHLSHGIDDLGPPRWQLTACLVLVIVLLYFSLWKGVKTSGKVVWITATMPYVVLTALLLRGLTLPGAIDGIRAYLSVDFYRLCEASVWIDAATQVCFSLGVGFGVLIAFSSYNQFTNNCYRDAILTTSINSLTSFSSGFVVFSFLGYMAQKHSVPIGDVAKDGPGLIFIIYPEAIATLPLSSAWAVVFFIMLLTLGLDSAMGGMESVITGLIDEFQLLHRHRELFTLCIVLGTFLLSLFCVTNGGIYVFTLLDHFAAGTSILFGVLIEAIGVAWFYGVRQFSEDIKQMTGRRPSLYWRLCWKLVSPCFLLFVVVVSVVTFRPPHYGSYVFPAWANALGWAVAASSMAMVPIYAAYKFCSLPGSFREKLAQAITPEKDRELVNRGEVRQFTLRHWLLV
# method.description: Dopamine reuptake inhibition assay ([3H]WIN 35428 binding, guinea pig striatal membranes)
# protocol.conditions: Table I; read-out: DA Uptake Ki
We begin with a simple list: items and their reported Ki.
Please state the figure in nM; there is no need to write the unit.

Known Ki results, listed for orientation:
> print(dat)
                                   compound  unit.label  reported.value
1  NCCC(Oc1ccccc1F)c1cccc(F)c1 (stereo not drawn)          nM            2800
2  N[C@@H]1CCCC1C(c1cccc(F)c1)c1cccc(F)c1 (stereo partly drawn)          nM             119
3         NCC[C@H](Oc1cccc(F)c1)c1cccc(F)c1          nM            1300

**Q:** Any idea what Ki was measured for NCC[C@@H](Oc1cccc(F)c1)c1ccccc1 ?
**A:** 1100

###

# measured.target: dopamine transporter site (Cavia porcellus, UniProt H0WCX4)
# Construct: tissue NovaScreen (performed the assay); host or cells: guinea pig striatal membranes
# method.description: Dopamine reuptake inhibition assay ([3H]WIN 35428 binding, guinea pig striatal membranes)
# protocol.conditions: @ 10.0 μM (bottom number); Table I; read-out: DA Uptake mean % inhibition
We begin with a simple list: items and their reported inhibition at 10 µM.
Please state the figure in %; there is no need to write the unit.

> print(dat)
                                   compound                           measured.target  unit.label  reported.value
1  Cc1ccc(F)cc1C(CCN)c1cc(F)ccc1C [Compound 58]  dopamine transporter site (Cavia porcellus, UniProt H0WCX4)           %            45.2
2  NCCC1c2ccccc2CCc2ccc(F)cc21 (centres unmarked) [Compound 197]  dopamine transporter site (Cavia porcellus, UniProt H0WCX4)           %            83.5

**Q:** Any idea what inhibition at 10 µM was measured for COc1ccccc1OC(CCN)c1cccc(F)c1 (centres unmarked) [Compound 121] ?
**A:** 91.3

**Q:** Any idea what inhibition at 10 µM was measured for N[C@H]1CCCC1C(c1cccc(F)c1)c1cccc(F)c1 (some centres unmarked) [Compound 63] ?
**A:** 97.8

**Q:** Any idea what inhibition at 10 µM was measured for CNCCC(Oc1cccc(F)c1)c1cccc(F)c1 (centres unmarked) [Compound 145] ?
**A:** 87.4

**Q:** Any idea what inhibition at 10 µM was measured for Cc1ccccc1OC(CCN)c1cccc(F)c1 (centres unmarked) [Compound 181] ?
**A:** 109

**Q:** Any idea what inhibition at 10 µM was measured for CNC[C@H](C)C(c1cccc(F)c1)c1cccc(F)c1 [Compound 66] ?
**A:** 92.8

**Q:** Any idea what inhibition at 10 µM was measured for CCNCCC(c1cccc(F)c1)c1cccc(F)c1 [Compound 59] ?
**A:** 77.6

###

We begin with a simple list: items and their reported inhibition at 0.1 µM.
# measured.target: serotonin transporter site (Rattus norvegicus)
# Construct: tissue NovaScreen (performed the assay); host or cells: rat forebrain membranes
# Sequence (P31652 whole entry): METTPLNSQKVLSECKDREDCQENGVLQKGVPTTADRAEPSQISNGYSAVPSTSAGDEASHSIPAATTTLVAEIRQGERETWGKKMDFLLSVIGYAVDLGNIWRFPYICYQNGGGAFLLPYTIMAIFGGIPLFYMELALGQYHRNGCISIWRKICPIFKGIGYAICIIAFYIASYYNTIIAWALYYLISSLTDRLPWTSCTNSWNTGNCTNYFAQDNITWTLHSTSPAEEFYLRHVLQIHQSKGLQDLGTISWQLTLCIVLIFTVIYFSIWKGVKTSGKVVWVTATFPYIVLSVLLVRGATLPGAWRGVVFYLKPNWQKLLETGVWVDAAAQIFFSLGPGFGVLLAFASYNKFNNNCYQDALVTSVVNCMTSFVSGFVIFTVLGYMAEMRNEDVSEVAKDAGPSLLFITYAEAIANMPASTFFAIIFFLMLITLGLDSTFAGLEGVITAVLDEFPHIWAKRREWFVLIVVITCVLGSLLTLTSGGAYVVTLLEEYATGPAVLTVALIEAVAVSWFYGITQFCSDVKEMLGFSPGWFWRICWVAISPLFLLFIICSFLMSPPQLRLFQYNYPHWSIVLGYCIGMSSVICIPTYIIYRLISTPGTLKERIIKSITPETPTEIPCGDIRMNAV
# method.description: Serotonin reuptake inhibition assay ([3H]citalopram binding, rat forebrain membranes)
# protocol.conditions: @ 100 nM (top number); Table I; read-out: 5-HT Uptake mean % inhibition
Please state the figure in %; there is no need to write the unit.

Known inhibition at 0.1 µM results, listed for orientation:
> print(dat)
                                   compound  unit.label  reported.value
1  NCCC1c2ccccc2CCc2ccc(F)cc21 (stereo not shown)           %             9.8
2  COc1ccccc1OC(CCN)c1cccc(F)c1 (stereo not shown)           %             8.5
3  CC(CN)C(c1cccc(Cl)c1)c1cccc(Cl)c1 (stereo not shown)           %            10.4
4            Cc1ccc(F)cc1C(CCN)c1cc(F)ccc1C           %            27.2
5  Cc1ccccc1OC(CCN)c1cccc(F)c1 (stereo not shown)           %            37.4
6  N[C@H]1CCCC1C(c1cccc(F)c1)c1cccc(F)c1 (stereo partly shown)           %            13.4

**Q:** Any idea what inhibition at 0.1 µM was measured for NCCC(Oc1cccc(F)c1)c1cccc(F)c1 (stereo not shown) ?
**A:** 0.6

**Q:** Any idea what inhibition at 0.1 µM was measured for CNC[C@H](C)C(c1cccc(F)c1)c1cccc(F)c1 ?
**A:** 6.1

**Q:** Any idea what inhibition at 0.1 µM was measured for CNCCC(Oc1cccc(F)c1)c1cccc(F)c1 (stereo not shown) ?
**A:** 3.5

**Q:** Any idea what inhibition at 0.1 µM was measured for CCNCCC(c1cccc(F)c1)c1cccc(F)c1 ?
**A:** 14.3

###

# measured.target: NMDA receptor
# Construct: rat cortex membranes
# method.description: [3H]MK-801 binding assay (rat cortex synaptic plasma membranes)
# protocol.conditions: read-out: [3H]MK-801 data IC50, Table I
Lab note: cut-off is 1 µM. Strictly less in IC50 is class 1. Exactly 1 µM or more is class 0.

Record excerpt, results attached:
> print(dat)
                                   molecule  class.label
1  COc1ccccc1OC(CCN)c1ccccc1 (stereo not shown) [Compound 178]      class 0
2  NCCC(Oc1cccc(Cl)c1)c1cccc(F)c1 (stereo not shown) [Compound 120]      class 1
3  Cc1ccccc1OC(CCN)c1cccc(F)c1 (stereo not shown) [Compound 181]      class 1
4  NCCC1c2cccc(F)c2CCc2c(F)cccc21 [Compound 193]      class 0
5    NCCC1c2ccccc2Oc2ccccc21 [Compound 182]      class 0

**Q:** Please state whether IC50 is below 1 µM for CNCCC(c1ccccc1)c1cccc(F)c1 (stereo not shown) [Compound 108]
**A:** class 1

**Q:** Please state whether IC50 is below 1 µM for CNCCC(c1cccc(F)c1)c1cccc(OC)c1 (stereo not shown) [Compound 142]
**A:** class 0
